Origin of the recorded values: paper PMC12920294

- method.description: in vivo
- condition.info: CD1 nude, mouse, 0.5 nmol/mouse, total radioactivity, Blood uptake
test.readout: tissue uptake at 4 h

Enquiry: Please list tissue uptake at 4 h recorded for the compound Cc1ccc(CCCC(=O)NCCOCCOCCOCCOCCC(=O)NC[C@H](NC(=O)CN2CCN(CC(=O)O)CCN(CC(=O)O)CCN(CC(=O)O)CC2)C(=O)N[C@@H](CC(=O)O)C(=O)N[C@@H](CC2CCCCC2)C(=O)N[C@@H](Cc2ccccc2)C(=O)N[C@H](CO)C(=O)N[C@H](CCCNC(=N)N)C(=O)N[C@@H](Cc2ccc(O)cc2)C(=O)N[C@@H](CC(C)C)C(=O)N[C@@H](Cc2c[nH]c3ccccc23)C(=O)N[C@@H](CO)C(N)=O)cc1 [[^177Lu]Lu-uPAR-14, metal not drawn]
Return: 4.5 %ID/g
